- tested_on: Tyrosine-protein kinase JAK1 (Homo sapiens, UniProt P23458)
- Sequence (P23458 whole entry): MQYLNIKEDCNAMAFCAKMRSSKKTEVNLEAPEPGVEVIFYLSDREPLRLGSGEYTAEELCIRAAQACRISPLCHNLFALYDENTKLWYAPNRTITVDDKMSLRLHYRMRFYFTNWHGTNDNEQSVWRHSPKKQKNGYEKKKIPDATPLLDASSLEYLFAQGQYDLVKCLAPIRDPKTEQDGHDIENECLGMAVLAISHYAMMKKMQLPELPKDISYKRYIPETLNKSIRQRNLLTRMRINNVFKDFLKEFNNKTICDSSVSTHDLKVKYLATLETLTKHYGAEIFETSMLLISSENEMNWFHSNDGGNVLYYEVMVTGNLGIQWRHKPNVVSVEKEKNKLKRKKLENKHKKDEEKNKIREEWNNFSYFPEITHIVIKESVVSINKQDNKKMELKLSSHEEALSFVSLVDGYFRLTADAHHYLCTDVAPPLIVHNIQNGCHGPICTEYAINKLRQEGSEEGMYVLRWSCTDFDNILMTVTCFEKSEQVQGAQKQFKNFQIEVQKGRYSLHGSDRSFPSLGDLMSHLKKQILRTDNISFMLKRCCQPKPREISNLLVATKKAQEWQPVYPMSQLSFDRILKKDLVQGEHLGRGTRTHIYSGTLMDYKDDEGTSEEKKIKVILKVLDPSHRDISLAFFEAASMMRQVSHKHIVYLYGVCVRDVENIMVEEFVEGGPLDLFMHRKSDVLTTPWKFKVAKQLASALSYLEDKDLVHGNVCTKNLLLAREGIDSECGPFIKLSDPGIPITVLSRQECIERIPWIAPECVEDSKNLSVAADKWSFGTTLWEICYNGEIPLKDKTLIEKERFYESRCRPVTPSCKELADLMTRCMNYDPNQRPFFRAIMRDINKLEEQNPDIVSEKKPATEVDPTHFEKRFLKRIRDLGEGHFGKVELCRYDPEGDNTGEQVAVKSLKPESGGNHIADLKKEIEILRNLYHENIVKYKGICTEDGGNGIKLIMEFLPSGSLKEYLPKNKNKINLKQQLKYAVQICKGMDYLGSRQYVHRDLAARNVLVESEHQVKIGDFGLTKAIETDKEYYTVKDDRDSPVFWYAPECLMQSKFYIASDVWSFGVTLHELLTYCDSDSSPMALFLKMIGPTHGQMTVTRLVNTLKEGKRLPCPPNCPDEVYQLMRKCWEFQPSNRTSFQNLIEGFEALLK
- method_summary: Induction of JAK1 degradation in human Jurkat cells at 1 uM incubated for 6 hrs by Western blot analysis
- Type: cell-based
Calls of active or inactive are those of the source. The rule behind the calls is not given here.
Classes to choose from: YES = active, NO = inactive

| smiles_str | assigned_label |
| --- | --- |
| CNC(=O)c1cnc(Nc2ccc(C(=O)NCCCC(=O)N[C@H](C(=O)N3C[C@H](O)C[C@H]3C(=O)NCc3ccc(-c4scnc4C)cc3)C(C)(C)C)cn2)cc1Nc1cccc(C(=O)NC)c1OC | YES |

Prompt line: Lab log entry: CNC(=O)c1cnc(Nc2ccc(C(=O)NCCCCCC(=O)N[C@H](C(=O)N3C[C@H](O)C[C@H]3C(=O)NCc3ccc(-c4scnc4C)cc3)C(C)(C)C)cn2)cc1Nc1cccc(C(=O)NC)c1OC — outcome as called in the assay?
Response line: NO

Prompt line: Give the logged outcome of this assay for the following compound: CNC(=O)c1cnc(Nc2ccc(C(=O)NCCCCCCCCC(=O)N[C@H](C(=O)N3C[C@H](O)C[C@H]3C(=O)NCc3ccc(-c4scnc4C)cc3)C(C)(C)C)cn2)cc1Nc1cccc(C(=O)NC)c1OC
Response line: NO
